biological target: Estrogen receptor (Rattus norvegicus) (UniProt P06211); assay: DSSTox (KIERBL) EPA Estrogen Receptor Ki Binding Study (Laws et al.) Database; conditions: Rat uterine cytosol ER, 3H-estradiol competitive binding
Sequence (P06211 whole entry, looked up): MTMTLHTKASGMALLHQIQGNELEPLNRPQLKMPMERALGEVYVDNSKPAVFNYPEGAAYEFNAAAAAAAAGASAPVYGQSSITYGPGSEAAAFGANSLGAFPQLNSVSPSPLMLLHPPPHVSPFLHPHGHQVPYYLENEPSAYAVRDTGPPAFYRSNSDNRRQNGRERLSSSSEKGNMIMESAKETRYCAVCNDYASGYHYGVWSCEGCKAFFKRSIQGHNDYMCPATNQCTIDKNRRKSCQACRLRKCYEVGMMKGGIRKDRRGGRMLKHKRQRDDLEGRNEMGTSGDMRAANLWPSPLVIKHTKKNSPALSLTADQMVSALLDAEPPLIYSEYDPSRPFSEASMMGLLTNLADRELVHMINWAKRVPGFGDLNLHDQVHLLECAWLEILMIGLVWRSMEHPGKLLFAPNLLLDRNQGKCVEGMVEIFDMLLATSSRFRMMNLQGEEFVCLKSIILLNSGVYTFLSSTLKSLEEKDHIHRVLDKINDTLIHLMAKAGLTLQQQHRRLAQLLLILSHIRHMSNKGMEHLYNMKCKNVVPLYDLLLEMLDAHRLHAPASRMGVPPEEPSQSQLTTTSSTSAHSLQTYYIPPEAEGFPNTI
Active and inactive are the calls of the source.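 Rule for the calls: active = chemicals shown by follow-up kinetic tests to compete for rat estrogen receptor sites, with a measured inhibition constant; inconclusive = some binding seen but constant unmeasurable owing to poor solubility; inactive = no binding up to top dose, or binding unconfirmed.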
quantity.measured: outcome

Before answering, review these 10 worked examples.
{"columns": ["compound", "outcome"],
 "data": [
  ["Cc1ccc(C(=O)c2ccccc2)cc1", "inactive; incomplete"],
  ["C[Si](O)(O)O", "inactive; none"],
  ["N#CCc1ccccc1", "inactive; none"],
  ["CC(Cl)Cl", "inactive; none"],
  ["CCO[Si](C)(CCCN)OCC", "inactive; none"],
  ["C=CC(=O)OCC(C)C", "inactive; none"],
  ["ClCC1OCCO1", "inactive; none"],
  ["CC(CO)c1ccccc1 (stereo not given)", "inactive; incomplete"],
  ["C=C(C)C(=O)OCCOCC", "inactive; none"],
  ["NC(=O)c1ccc(N)cc1", "inactive; none"]
]}

So what does the record say about outcome for Cc1ccc([N+](=O)[O-])c(C)c1 ?
inactive; none

Please give the measured outcome for this compound: Cc1cc(O)c(C(C)(C)C)cc1C(C)CC(c1cc(C(C)(C)C)c(O)cc1C)c1cc(C(C)(C)C)c(O)cc1C (stereo not given)
inactive; none

Which outcome is listed for CC(C)COC(=O)C(C)C ?
inactive; none

Look up outcome: c1ccc(-c2ccccc2)cc1
inactive; none

GET /values?readout=outcome&item= CC(C)(C)c1cc(-n2nc3ccc(Cl)cc3n2)c(O)c(C(C)(C)C)c1
inactive; none

Data provenance is PubChem BioAssay AID1576.
